# Method: AUC (0 to 24 hrs) in plasma of athymic nu/nu mouse xenografted with human SJSA-1 cells at 25 mg/kg, iv measured for 24 hrs by LC-MS-MS analysis
# Assay type: ADME, organism-based
# Parameters: time 24 hrs, dose 25 mg/kg, route iv
# Run conditions: in vivo
Recorded endpoint: AUC (µg·h/mL)
Please give a number only; it is taken to be in µg·h/mL.

Suppose we examine the compound CC(=O)N[C@@H](CC(C)C)C(=O)N[C@H](C(=O)N[C@@H](Cc1ccccc1)C(=O)N[C@]1(C)CCCCCC/C=C/CCC[C@@](C)(C(=O)N[C@@H](C)C(=O)N[C@@H](C)C(=O)N[C@@H](C)C(=O)N[C@@H](C)C(=O)N[C@@H](C)C(=O)N[C@H](C)C(N)=O)NC(=O)[C@H](CC(C)C)NC(=O)[C@H](CCC(N)=O)NC(=O)[C@H](C)NC(=O)[C@H](Cc2c[nH]c3ccccc23)NC(=O)[C@H](Cc2ccc(O)cc2)NC(=O)[C@H](CCC(=O)O)NC1=O)[C@@H](C)O ; what AUC value has been reported?
3180

Origin of measurements: ChEMBL document CHEMBL5346962
